# study.target: GDP-bound KRAS wild-type protein (Homo sapiens, UniProt P01116)
# Sequence (P01116 1-188 isoform P01116-2): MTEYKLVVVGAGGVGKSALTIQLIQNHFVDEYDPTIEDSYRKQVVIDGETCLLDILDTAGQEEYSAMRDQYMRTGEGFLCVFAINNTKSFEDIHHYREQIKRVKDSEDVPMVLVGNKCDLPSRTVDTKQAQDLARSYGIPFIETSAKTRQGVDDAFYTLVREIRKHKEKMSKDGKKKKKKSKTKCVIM
# assay.summary: Binding to KRAS by surface plasmon resonance (SPR), dissociation constant KD
# assay.context: 1:1 binding model
readout: pKd
// pKd is dimensionless: -log10 of concentration (M)

1) CCOC[C@H]1C(=O)N[C@@H]([C@@H](C)CC)C(=O)N(C)CC(=O)N(C)[C@H]2C/C=C\CCN(C2=O)[C@@H](Cc2ccc(C)cc2)C(=O)N(C)CC(=O)N[C@@H](CCc2ccc(C(F)(F)F)c(OC)c2)C(=O)N2C[C@H](C)C[C@H]2C(=O)NC2(CC(C)(C)C2)C(=O)N(C)[C@@H](C2CCCC2)C(=O)N(C)[C@H](C(=O)N(C)C)CC(=O)N1C [PP2393] | 9.92

Could you now look at the following molecule, please?
Problem: Consider the molecule shown here: CCO[C@@H]1C[C@H]2C(=O)NC3(CC(C)(C)C3)C(=O)N(C)[C@@H](C3CCCC3)C(=O)N(C)[C@H](C(=O)N(C)CC)CC(=O)N(C)[C@@H]([C@@H](C)OC)C(=O)N[C@@H]([C@@H](C)CC)C(=O)N3CCC[C@H]3C(=O)N(C)[C@H]3C/C=C\CCN(C3=O)[C@@H](Cc3ccc(C)cc3)C(=O)N(C)CC(=O)N[C@@H](CCc3cc(F)c(C(F)(F)F)c(F)c3)C(=O)N2C1 [PP3190] What is its recorded pKd?
Result: 9.06

###

# study.target: GDP-bound KRAS wild-type protein (Homo sapiens)
# assay.summary: Binding to KRAS by surface plasmon resonance (SPR), dissociation constant KD
# assay.context: Single Cycle Kinetics, 1:1 binding model
# Protocol: Surface plasmon resonance was used to analyze the binding affinity of compounds for KRAS, NRAS, and HRAS. […] The resulting sensorgram was subjected to curve fitting based on a 1:1 binding model on Biacore Insight Evaluation Software or T200 Evaluation Software, and thereby the dissociation constant KD of each compound with respect to KRAS, NRAS, and HRAS was determined. […]
readout: pKd
Conceptually, pKd converts a concentration in mol/L into minus its log10.

Worked cases, answers included:
1. CCO[C@@H]1C[C@H]2C(=O)NC3(CCC3)C(=O)N(C)[C@@H](C3CCCC3)C(=O)N(C)[C@H](C(=O)N(C)C)CC(=O)N(C)[C@@H](CCOC)C(=O)N[C@@H]([C@@H](C)CC)C(=O)N(C)CC(=O)N(C)[C@H]3CCCCCN(C3=O)[C@@H](Cc3ccc(C(F)(F)F)cc3)C(=O)N(C)CC(=O)N[C@@H](CCc3cc(F)c(C(F)(F)F)c(F)c3)C(=O)N2C1 [PP0675] | 9.66
2. CCO[C@@H]1C[C@H]2C(=O)NC3(CCC3)C(=O)N(C)[C@@H](C(CC)CC)C(=O)N(C)[C@H](C(=O)N3CCCC3)CC(=O)N(C)[C@@H](COC)C(=O)N[C@@H]([C@@H](C)CC)C(=O)N(C)CC(=O)N(C)[C@H]3C/C=C\CCN(C3=O)[C@@H](CC3CCC(F)(F)CC3)C(=O)N(C)CC(=O)N[C@@H](CCc3cc(F)c(C(F)(F)F)c(F)c3)C(=O)N2C1 [PP1440] | 9.46

Now for the compound whose pKd we want.
Problem: Please give the measured pKd for this compound: CCO[C@@H]1C[C@H]2C(=O)NC3(CCC3)C(=O)N(C)[C@@H](C(CC)CC)C(=O)N(C)[C@H](C3CCC3)CC(=O)N(C)[C@@H](CC3CC3)C(=O)N[C@@H]([C@@H](C)CC)C(=O)N(C)CC(=O)N(C)[C@H]3C/C=C\CCN(C3=O)[C@@H](Cc3ccc(C(F)(F)F)cc3)C(=O)N(C)CC(=O)N[C@@H](CCc3cc(F)c(C(F)(F)F)c(F)c3)C(=O)N2C1 [PP1636]
Result: 8.55

The origin of these recorded values is patent EP4603105A1.
